Reported association rate constants (ka) values follow for various molecules
# Tested on: human IgG
# EXPERIMENT NOTES: SPR kinetic analysis of binding between synthetic peptides and human IgG
# CONDITION: biotinylated peptide immobilized on sensor chip SA, human IgG as analyte, 25° C.
Positions of bridges follow the written chain, without caps; N, C: chain ends. Residues, ends and D or L forms follow the SMILES beside them. *: point of attachment. Biotin = O=C1N[C@H]2[C@H](CS[C@H]2CCCCC(=O)*)N1; Ahx = NCCCCCC(=O)O
State the answer as a number, implicitly in M⁻¹ s⁻¹.

Here are 3 molecules together with their reported answers.
- MOLECULE: "CC(C)C[C@@H]1NC(=O)CNC(=O)[C@H](Cc2c[nH]c3ccccc23)NC(=O)[C@H](CCC(N)=O)NC(=O)[C@H](CO)NC(=O)[C@H](CCCNC(=N)N)NC(=O)[C@H](Cc2c[nH]c3ccccc23)NC(=O)[C@H](Cc2ccc(O)cc2)NC(=O)CNC(=O)[C@@H](NC(=O)CNC(=O)CCCCCNC(=O)CCCC[C@@H]2SC[C@@H]3NC(=O)N[C@@H]32)CSSC[C@@H](C(=O)NCC(=O)O)NC1=O [IMGpep-1E6Q] ({Biotin-Ahx}-GCGYWRSQWGLCG-OH; disulfide 2-12)"
  association rate constants (ka) (M⁻¹ s⁻¹): 15000
- MOLECULE: "CC(C)C[C@@H]1NC(=O)CNC(=O)[C@H](Cc2c[nH]c3ccccc23)NC(=O)[C@H](C)NC(=O)[C@H](CCCCN)NC(=O)[C@@H]2CCCN2C(=O)[C@H](Cc2c[nH]c3ccccc23)NC(=O)[C@H](Cc2ccc(O)cc2)NC(=O)CNC(=O)[C@H]([C@@H](C)O)NC(=O)[C@@H](NC(=O)CNC(=O)CCCCCNC(=O)CCCC[C@@H]2SC[C@@H]3NC(=O)N[C@@H]32)CSSC[C@@H](C(=O)NCC(=O)O)NC1=O [IMGpep-4] ({Biotin-Ahx}-GCTGYWPKAWGLCG-OH; disulfide 2-13)"
  association rate constants (ka) (M⁻¹ s⁻¹): 14000
- MOLECULE: "CC(C)C[C@@H]1NC(=O)CNC(=O)[C@H](Cc2c[nH]c3ccccc23)NC(=O)[C@H](CCC(=O)O)NC(=O)[C@H](CO)NC(=O)[C@H](CCCNC(=N)N)NC(=O)[C@H](Cc2c[nH]c3ccccc23)NC(=O)[C@H](Cc2ccc(O)cc2)NC(=O)CNC(=O)[C@@H](NC(=O)CNC(=O)CCCCCNC(=O)CCCC[C@@H]2SC[C@@H]3NC(=O)N[C@@H]32)CSSC[C@@H](C(=O)NCC(=O)O)NC1=O [IMGpep-1] ({Biotin-Ahx}-GCGYWRSEWGLCG-OH; disulfide 2-12)"
  association rate constants (ka) (M⁻¹ s⁻¹): 20000

Let us move to another entry and its association rate constants (ka).
**Q:** Give its association rate constants (ka) value. Item: `CC(C)C[C@@H]1NC(=O)CNC(=O)[C@H](Cc2c[nH]c3ccccc23)NC(=O)[C@H](C)NC(=O)[C@H](CCCNC(=N)N)NC(=O)[C@@H]2CCCN2C(=O)[C@H](Cc2c[nH]c3ccccc23)NC(=O)[C@H](Cc2ccc(O)cc2)NC(=O)CNC(=O)[C@H]([C@@H](C)O)NC(=O)[C@@H](NC(=O)CNC(=O)CCCCCNC(=O)CCCC[C@@H]2SC[C@@H]3NC(=O)N[C@@H]32)CSSC[C@@H](C(=O)NCC(=O)O)NC1=O`
**A:** 16000
